experiment: Cytotoxicity against human MT4 cells assessed as decrease in cell viability after 5 days by MTT assay; assay type: toxicity, cell-based
READOUT LABEL: CC50 at 120 h (µM)
# value in µM; strip the unit string

- COMPOUND: "Cc1cn([C@H]2C[C@@H](OCP(=O)(O)O)CO2)c(=O)[nH]c1=O"
  READOUT LABEL: "CC50 at 120 h"
  DISPLAY UNIT: "µM"
  NUMERIC VALUE: 297

Exam item: May I ask what CC50 at 120 h has been recorded for CC(C)OC(=O)[C@H](C)NP(=O)(CO[C@H]1CO[C@@H](n2cnc3c(N)ncnc32)C1)Oc1ccccc1 (stereo not given in full) ?
Marked response: 61.8

Exam item: May I ask what CC50 at 120 h has been recorded for "CCCOC(=O)[C@H](Cc1ccccc1)NP(=O)(CO[C@H]1CO[C@@H](n2cc(C)c(=O)[nH]c2=O)C1)N[C@@H](Cc1ccccc1)C(=O)OCCC" ?
Marked response: 56.6

====

assay: Chemical stability of the compound in pH 8 phosphate buffer assessed as parent compound remaining at 2 mg after 14 hrs by 31P NMR method; assay type: physicochemical; conditions: read-out: Stability
READOUT LABEL: remaining at 14 h (%)
# value in %; strip the unit string

Exam item: May I ask what remaining at 14 h has been recorded for CC(C)CCOC(=O)C[C@H](NP(=O)(CO[C@H]1CO[C@@H](n2cnc3c(N)ncnc32)C1)Oc1ccccc1)C(=O)OCCC(C)C (stereo partly specified) ?
Marked response: 43

====

assay: Cytotoxicity against human HepG2(2.2.15) cells assessed as reduction in cell viability by MTS assay; format: toxicity, cell-based
READOUT LABEL: CC50

Examples with answers:
- MOLECULE: "Nc1nc2c(ncn2[C@H]2C[C@@H](OCP(=O)(O)O)CO2)c(=O)[nH]1"
  RESULT: "> 100 µM"
- MOLECULE: "CC(C)OC(=O)[C@H](C)NP(=O)(CO[C@H]1CO[C@@H](n2cnc3c(=O)[nH]c(N)nc32)C1)N[C@@H](C)C(=O)OC(C)C"
  RESULT: "> 100 µM"
- MOLECULE: "Nc1ccn([C@@H]2CS[C@H](CO)O2)c(=O)n1 [LAMIVUDINE]"
  RESULT: "> 2 µM"

Exam item: May I ask what CC50 has been recorded for "CCCOC(=O)[C@H](Cc1ccccc1)NP(=O)(CO[C@H]1CO[C@@H](n2cnc3c(N)ncnc32)C1)N[C@@H](Cc1ccccc1)C(=O)OCCC" ?
Marked response: > 10 µM

Exam item: May I ask what CC50 has been recorded for "CCCOC(=O)[C@H](Cc1ccccc1)NP(=O)(CO[C@H]1CO[C@@H](n2cc(C)c(=O)[nH]c2=O)C1)N[C@@H](Cc1ccccc1)C(=O)OCCC" ?
Marked response: > 10 µM

Exam item: May I ask what CC50 has been recorded for CC(C)OC(=O)[C@H](C)NP(=O)(CO[C@H]1CO[C@@H](n2cnc3c(N)ncnc32)C1)Oc1ccccc1 (some centres not stated) ?
Marked response: > 10 µM

Exam item: May I ask what CC50 has been recorded for "CCCOC(=O)[C@H](Cc1ccccc1)NP(=O)(CO[C@H]1CO[C@@H](n2cnc3c(=O)[nH]c(N)nc32)C1)N[C@@H](Cc1ccccc1)C(=O)OCCC" ?
Marked response: > 100 µM

Exam item: May I ask what CC50 has been recorded for CC(C)OC(=O)[C@H](C)NP(=O)(CO[C@H]1CO[C@@H](n2ccc(N)nc2=O)C1)Oc1ccccc1 (some centres not stated) ?
Marked response: > 100 µM

Exam item: May I ask what CC50 has been recorded for Cc1cn([C@H]2C[C@@H](OCP(=O)(N[C@@H](CC(=O)OCCC(C)C)C(=O)OCCC(C)C)Oc3ccccc3)CO2)c(=O)[nH]c1=O (some centres not stated) ?
Marked response: 34 µM

Exam item: May I ask what CC50 has been recorded for Cc1cn([C@H]2C[C@@H](OCP(=O)(N[C@@H](C)C(=O)OC(C)C)Oc3ccccc3)CO2)c(=O)[nH]c1=O (some centres not stated) ?
Marked response: > 100 µM

Exam item: May I ask what CC50 has been recorded for "Nc1ccn([C@H]2C[C@@H](OCP(=O)(O)O)CO2)c(=O)n1" ?
Marked response: > 100 µM
